Target: Chromo domain-containing protein 1 (Saccharomyces cerevisiae (strain ATCC 204508 / S288c) (Baker's yeast)) (UniProt P32657)
Sequence (P32657 whole entry, the tested form may be a part): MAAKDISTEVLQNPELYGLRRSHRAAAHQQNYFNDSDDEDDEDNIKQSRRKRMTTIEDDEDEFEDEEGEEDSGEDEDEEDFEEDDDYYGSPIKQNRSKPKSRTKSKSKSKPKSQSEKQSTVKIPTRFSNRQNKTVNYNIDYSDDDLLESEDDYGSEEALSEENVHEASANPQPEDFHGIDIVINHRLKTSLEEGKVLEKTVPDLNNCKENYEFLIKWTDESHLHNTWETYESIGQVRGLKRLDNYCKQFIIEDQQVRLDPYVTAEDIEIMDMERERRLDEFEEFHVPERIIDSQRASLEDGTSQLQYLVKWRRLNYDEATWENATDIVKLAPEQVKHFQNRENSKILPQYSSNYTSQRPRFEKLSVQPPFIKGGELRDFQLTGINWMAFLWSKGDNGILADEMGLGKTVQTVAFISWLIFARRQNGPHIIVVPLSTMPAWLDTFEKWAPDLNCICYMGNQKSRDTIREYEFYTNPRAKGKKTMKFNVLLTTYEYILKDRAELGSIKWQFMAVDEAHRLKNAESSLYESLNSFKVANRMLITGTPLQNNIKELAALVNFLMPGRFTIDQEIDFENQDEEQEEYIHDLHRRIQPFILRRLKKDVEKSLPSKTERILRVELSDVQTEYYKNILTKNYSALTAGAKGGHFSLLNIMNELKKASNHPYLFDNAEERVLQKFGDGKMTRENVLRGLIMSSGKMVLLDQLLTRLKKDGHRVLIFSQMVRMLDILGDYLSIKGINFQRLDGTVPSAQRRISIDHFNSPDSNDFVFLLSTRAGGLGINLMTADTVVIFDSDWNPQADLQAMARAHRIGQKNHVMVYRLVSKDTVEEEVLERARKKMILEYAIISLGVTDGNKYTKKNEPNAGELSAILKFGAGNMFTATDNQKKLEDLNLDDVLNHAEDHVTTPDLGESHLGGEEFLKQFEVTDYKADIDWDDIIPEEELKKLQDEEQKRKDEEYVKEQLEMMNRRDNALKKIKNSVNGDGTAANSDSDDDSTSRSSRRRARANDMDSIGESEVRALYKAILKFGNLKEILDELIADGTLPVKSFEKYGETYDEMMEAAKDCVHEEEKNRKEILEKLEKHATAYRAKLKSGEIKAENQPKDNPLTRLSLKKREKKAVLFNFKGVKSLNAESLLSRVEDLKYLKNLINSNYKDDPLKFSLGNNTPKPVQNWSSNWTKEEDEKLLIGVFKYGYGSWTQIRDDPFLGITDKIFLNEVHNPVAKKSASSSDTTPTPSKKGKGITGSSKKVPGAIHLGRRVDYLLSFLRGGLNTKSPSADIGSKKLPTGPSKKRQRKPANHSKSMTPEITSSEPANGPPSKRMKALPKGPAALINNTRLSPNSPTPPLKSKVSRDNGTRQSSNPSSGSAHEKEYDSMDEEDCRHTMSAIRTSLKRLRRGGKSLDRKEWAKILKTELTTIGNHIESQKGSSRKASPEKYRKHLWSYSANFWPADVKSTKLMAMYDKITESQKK
Assay: ScCHD-1 Enzyme Inhibition Assay
Assay type: functional
Set-up: scale not given: in the data most compounds retested in dose-response had high values
Conditions: 30 µM
measured_endpoint: Percent Effect
Answer with the value and then the unit.

Recorded results for 8 molecules are shown here.
CN(Cc1ccco1)[C@@H]1CN(Cc2ccco2)[C@@H]2CCCO[C@H]12; -5.52%
CCn1cnnc1C1CCN(C(=O)c2cnc3ccccc3n2)CC1; 1.06%
CCC(C(=O)NCc1ccncc1)N(c1cccc(C)c1)S(C)(=O)=O (configuration not stated); -7.66%
CC(C)NC(=O)[C@@H]1CCO[C@@H]2CCN(c3ncccn3)C[C@H]21; -7.2%
CC(C)NC(=O)N1CCN(S(=O)(=O)C2CC2)CC2(CNC(=O)C2)C1 (configuration not stated); -5.37%
Cc1nn(CCO)c(C)c1CNC1CCc2c(Cl)cccc21 (configuration not stated); -14.3%
Cc1ccoc1C(=O)N1C[C@@H]2[C@@H](C1)OCC(=O)N2Cc1cccnc1; 5.56%
O=C(NCCCN1CCOCC1)c1cc(-c2ccco2)[nH]n1; -2.57%

Returns the measured Percent Effect for the input molecule. Input: "COc1ccccc1OCC(=O)NS(=O)(=O)c1cc(F)ccc1F"
-1.41%

Please answer likewise for "Cc1ccc(-c2cc(CNC(=O)N3CCC(CO)CC3)on2)cc1"
-4.09%

Same lookup for "Cc1nc(C)c(C(=O)NCCNC(=O)Cc2ccccc2)s1" , please.
-2.99%

Next molecule up: CC(=O)N1CCCC1c1ccc(-c2c(C)noc2C)cn1 (configuration not stated)
3.24%

Same question, "CC(=O)Nc1nc(C2CCN(CC(N)=O)CC2)cs1" this time
11%

# iterate: "CN(C)S(=O)(=O)N1CCC(Oc2ccc(C#N)cn2)CC1"
-8.98%

Likewise for "NS(=O)(=O)c1ccc(NC(=O)CSc2ccc3c(c2)CCC3)cc1" ?
17.3%

Now this one: "CCN1C[C@@H]2[C@@H](OC)CCN(S(=O)(=O)c3ccccc3)[C@@H]2C1"
-5.54%

Query CC(C)S(=O)(=O)NCC1CCCN(C(=O)c2ccc3c(c2)CCC3)C1 (configuration not stated) next
-5.72%

// query: CC(C(=O)N1CCN(c2ccccc2Cl)CC1)n1cncn1 (configuration not stated)
-25.6%

One more molecule: "CCc1ncnc2c1CCN(C(=O)Cc1ccccn1)CC2"
-2.69%

Repeat for the following molecule: "Cc1occc1C(=O)N1CCC2(CCN(Cc3nccs3)C2)CC1"
6.12%

Source: ChEMBL document CHEMBL3988442
